assayProcedure: Selectivity index, ratio of GI90 for human MCF7 cells to MIC90 for dormant state of Mycobacterium tuberculosis H37Ra
Format: toxicity
experimentalParameters: read-out: Selectivity Index
Record form. Attribute: selectivity ratio. Fill in for each entry.

State its selectivity ratio for this molecule: "COc1ccc2cc(/C=C3\CN(C)C/C(=C\c4cc5ccc(OC)cc5nc4Cl)C3=O)c(Cl)nc2c1"
> 12

State its selectivity ratio for this molecule: "COc1ccc2cc(/C=C3\CNC/C(=C\c4cc5ccc(OC)cc5nc4Cl)C3=O)c(Cl)nc2c1"
> 3

State its selectivity ratio for this molecule: "O=C1/C(=C/c2cc3cc(F)ccc3nc2Cl)CNC/C1=C\c1cc2cc(F)ccc2nc1Cl"
> 3

State its selectivity ratio for this molecule: "CN1C/C(=C\c2cc3ccccc3nc2Cl)C(=O)/C(=C/c2cc3ccccc3nc2Cl)C1"
> 3

State its selectivity ratio for this molecule: "CO[C@H]1/C=C/O[C@@]2(C)Oc3c(C)c(O)c4c(O)c(c(/C=N/N5CCN(C)CC5)c(O)c4c3C2=O)NC(=O)/C(C)=C\C=C\[C@H](C)[C@H](O)[C@@H](C)[C@@H](O)[C@@H](C)[C@H](OC(C)=O)[C@@H]1C"
> 133
